Measured values drawn from PubChem BioAssay (NCI) for this set.

Test system: 786-0 renal
Method summary: NCI tumour cell line growth inhibition, 48 h
Quantity: TGI

Recorded results for 3 molecules are shown here.
CCOC(=O)/C=C(\C(=O)OCC)n1ccc(N)nc1=O; > 100 µM
CC(=O)CCCCO; > 100 µM
NC(=O)c1ccc2c(c1)S(=O)(=O)c1ccccc1C2=O; > 100 µM

# molecule NC(=O)C#CC(N)=O ; its TGI = > 58 µM

Record O=C(OCc1ccccc1)C1(N2CN(C3(C(=O)OCc4ccccc4)CCCC3)CN(C3(C(=O)OCc4ccccc4)CCCC3)C2)CCCC1 , field TGI: > 10 µM

TGI recorded for this molecule, Cc1sc(/N=C/c2c[nH]c3ccccc23)c(C#N)c1C , is > 100 µM

Please fill in: TGI reported for COc1cc(/C=C2\CCC(CN(C)C)C2=O)ccc1OC(=O)c1ccccc1 (configuration not stated) = 12.4 µM

Query CN(NC(=O)CCCl)C1=NCCCCN1 yields TGI of > 100 µM

Item: c1ccc2c(c1)CCc1cc3cc4c(nc3nc1-2)-c1ccccc1CC4 | TGI: > 100 µM

So for NC(N)=NNC(=O)CCCCCCCC(=O)NN=C(N)N , the logged TGI turned out to be > 100 µM

In plain terms, C=CCC1(O)c2cccc(NCCO)c2C(=O)c2c(NCCO)cccc21 has a documented TGI of > 100 µM

TGI reading for NC(=S)Nc1[nH]c(=S)nc2c1SC1=N/C(=C\c3ccco3)C(=O)N12 : > 100 µM
